Molecular target: T1, Csa5 (Csa5b) WT (Thermoproteus tenax Kra1, UniProt G4RJZ0 1-130)
T1 sequence: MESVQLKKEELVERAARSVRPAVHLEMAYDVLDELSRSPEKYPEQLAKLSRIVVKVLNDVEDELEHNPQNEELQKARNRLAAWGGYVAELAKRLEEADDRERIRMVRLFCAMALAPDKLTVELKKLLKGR
Assay: MST; Tris pH 7.4, 150 mM NaCl; no metal; EMSA: 100 mM HEPES/KOH pH 7, 10 mM beta-mercaptoethanol, 37 C 30 min, 6% native TBE PAGE; MST: 50 mM Tris-HCl pH 7.4, 150 mM NaCl, 0.05% Tween-20, 37 C 30 min
Conditions: protein: recombinant; tags: none stated (pET24a); label: 5' Cy3
quantity-name: Kd (µM)
Express your answer in µM, writing the number without its unit.

Query: Entry under review: Cy3-non-target ssDNA 80 nt (ssDNA) DNA: CGACTCACTATAGGCCTATCGCTTGTCCAACCGGGCTCCTCTATATGTCGTCATTAGCTTACCGCTGAGCAATAACTAGC . Reported Kd?
Response: 6.49
